Data credit: PubChem BioAssay (NCI)

Recorded GI50 values for a group of compounds are listed next.
Test system: SNB-19 CNS
Assay: NCI tumour cell line growth inhibition, 48 h

Past entries and their recorded results:
COMPOUND | STUDY SYSTEM | MEASURED ATTRIBUTE | READOUT VALUE
CC(=O)c1nc2ccccc2n1CC(=O)c1cccc(Cl)c1 | SNB-19 CNS | GI50 | 808 nM
CCSc1ccc(C2C(Br)C(=O)N2c2cc(OC)c(OC)c(OC)c2)cc1 (stereo unspecified) | SNB-19 CNS | GI50 | 440 nM
NC(=S)NN=C1CSSC1 | SNB-19 CNS | GI50 | 2460 nM
Cc1ccc(-c2cc(O)c(-c3ccc(C)cc3C)cc2O)c(C)c1 | SNB-19 CNS | GI50 | 10900 nM
O=C(CCCCC(=O)N/N=C\c1ccccc1O)N/N=C\c1ccccc1O | SNB-19 CNS | GI50 | 5880 nM

--- query ---
Quick one: GI50 for `COc1ccc(Cn2cc3c(c2-c2cc(OC)c(OC)c(OC)c2)CCc2cnoc2-3)cc1` ?
502 nM

---

Tested on: SNB-75 CNS
Experiment: NCI tumour cell line growth inhibition, 48 h; in the data active means GI50 below about 0.43 µM; inactive means the rest
Hi! Could you answer with just one of these? active, inactive

COMPOUND | CLASS
N.N.O=P([O-])([O-])C1(P(=O)([O-])[O-])CCCCCN1.[Pt+2] | inactive
CC(O)c1cc(C(=O)N[C@@H](C)Cn2ccc(-c3ccc(C#N)c(Cl)c3)n2)n[nH]1 (some centres not stated) | inactive
CC(=O)c1nc2ccccc2n1CC(=O)c1cccc(Cl)c1 | active

Hey, what did the test say about `COc1cc(NC(=O)C2=C(N3CCOCC3)/C(=C/c3ccc(Cl)cc3)CC2)cc(OC)c1OC` ?
inactive

Per the records of this test, what outcome belongs to `Cc1cccc(Cc2cnc(NC(=O)CCc3ccc(C)o3)s2)c1` ?
active

---

The following compounds are listed with their measured GI50 values.
System: EKVX NSCLC
Assay: NCI tumour cell line growth inhibition, 48 h

EKVX NSCLC / GI50 / `COc1cc(-c2csc(NC(=O)Nc3cc(Cl)cc(Cl)c3)n2)cc(OC)c1OC` : value?
1870 nM

Form: Entry = `O=Nc1c(-c2c(O)[nH]c3ccc(Br)cc23)[nH]c2ccccc12` | System = EKVX NSCLC | GI50 = ____
3000 nM

Param readout = GI50; param system = EKVX NSCLC; param query = `COc1c(B(O)O)cc(F)cc1-c1nc2ccc3[nH]ncc3c2c2c1CCCC2` ; response: value
2370 nM

Give recorded GI50 with EKVX NSCLC for the following compound: `CC(C)(C)c1ccc(NS(=O)(=O)c2ccc3nc(NC(=O)c4cnccn4)[nH]c3c2)cc1`
5010 nM

Short answer please: GI50, EKVX NSCLC, entry `O=C(NC(=S)Nc1cc(Cl)ccc1O)c1cccc(Br)c1`
17100 nM

Request body: readout GI50, system EKVX NSCLC, query `COc1cccc2c1n([O-])c1cccc(OC)c1[n+]2=O` . Return the value.
7260 nM

Query GI50 on EKVX NSCLC for `CC(=O)[O-].O=C([CH-]C(=O)c1ccccc1)c1ccccc1.O=C([CH-]C(=O)c1ccccc1)c1ccccc1.[Sm+3]`
2110 nM

Short answer please: GI50, EKVX NSCLC, entry `CCCCCCCCCCCCCCCC1=NC(C)(C)CN1C(C)C`
1740 nM

Item: CCC[CH2][Sn]1([CH2]CCC)[O]CC(C)[O]1 (stereo unspecified) Test system: EKVX NSCLC Read-out: GI50 Value: ?
1830 nM

API: value(readout= GI50, system= EKVX NSCLC, query= Cc1ccc(Sc2cc3c(oc2=O)-c2ccccc2OC3O)cc1 (stereo unspecified) )
21900 nM

Please provide the recorded GI50 for `CC(=O)c1cc(O)c2ccccc2c1O` , tested on EKVX NSCLC.
22100 nM
